Listed next: entries and their corresponding half-life.
- assay.explanation: Half-life in 50 mM phosphate buffer of pH 7.5 at 37 degreeC by 1H NMR method
- Assay type: physicochemical
- settings: phosphate buffer
Quick note: give the figure in min, leave out the unit.

>>> df
                            compound_string  output_unit  result_number
0  CN[C@@H](C)C(=O)N[C@@H](CNCc1ccc(S(=O)(=O)F)cc1)C(=O)N1CCC[C@H]1C(=O)N[C@@H](Cc1ccccc1)C(N)=O          min            150

Next up:
Give recorded half-life. CN[C@@H](C)C(=O)N[C@@H](CNC(=O)c1ccc(S(=O)(=O)F)cc1)C(=O)N1CCC[C@H]1C(=O)N[C@@H](Cc1ccccc1)C(N)=O
30

====

- target.or.test.system: UniProt:P98170
- Sequence (P98170 whole entry): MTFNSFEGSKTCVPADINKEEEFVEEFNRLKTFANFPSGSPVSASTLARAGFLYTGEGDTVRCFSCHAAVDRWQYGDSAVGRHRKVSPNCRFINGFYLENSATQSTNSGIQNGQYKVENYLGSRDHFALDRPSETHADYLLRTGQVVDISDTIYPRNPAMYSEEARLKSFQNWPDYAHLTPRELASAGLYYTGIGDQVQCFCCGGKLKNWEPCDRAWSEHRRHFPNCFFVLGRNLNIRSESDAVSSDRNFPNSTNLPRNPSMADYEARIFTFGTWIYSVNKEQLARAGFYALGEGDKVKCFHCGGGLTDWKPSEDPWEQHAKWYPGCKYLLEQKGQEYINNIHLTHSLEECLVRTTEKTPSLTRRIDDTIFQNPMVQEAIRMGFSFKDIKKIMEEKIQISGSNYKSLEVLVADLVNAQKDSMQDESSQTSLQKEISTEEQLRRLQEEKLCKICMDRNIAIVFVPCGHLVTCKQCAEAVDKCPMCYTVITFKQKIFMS
- assay.explanation: biochemical
measure.name: IC50 (nM)
Quick note: give the figure in nM, leave out the unit.

Give recorded IC50. CN[C@@H](C)C(=O)N[C@H](C(=O)N1CCC[C@H]1C(=O)Nc1snnc1-c1ccccc1)C1CCCCC1 [GDC-0152]
21

====

- assay.explanation: Half-life in mouse plasma at 200 uM by LC-MS method
- Type: ADME, cell-free
measure.name: half-life at 200 µM (h)
Quick note: give the figure in h, leave out the unit.

>>> print(df.to_string())
                            compound_string  output_unit  result_number
0  CN[C@@H](C)C(=O)N[C@@H](CNCc1ccc(S(=O)(=O)F)cc1)C(=O)N1CCC[C@H]1C(=O)N[C@@H]1CCc2c(F)cccc21            h           0.25

Give recorded half-life at 200 µM. CN[C@@H](C)C(=O)N[C@H](C(=O)N1CCC[C@H]1C(=O)Nc1snnc1-c1ccccc1)C1CCCCC1
1

====

- assay.explanation: Half-life in mouse plasma at 200 uM by LC-MS method
- Assay type: ADME, cell-free
measure.name: half-life at 200 µM

>>> df
                            compound_string  result
0  CN[C@@H](C)C(=O)N[C@@H](Cc1ccc(OS(=O)(=O)F)cc1)C(=O)N1CCC[C@H]1C(=O)NC1Cc2ccccc2C1   > 2 h
1  CN[C@@H](C)C(=O)N[C@@H](Cc1ccc(OS(=O)(=O)F)cc1)C(=O)N1CCC[C@H]1C(=O)N[C@@H]1CCc2c(F)cccc21   > 2 h

Give recorded half-life at 200 µM. CN[C@@H](C)C(=O)N[C@H](C(=O)N1CCC[C@H]1c1nc(C(=O)c2ccc(F)cc2)cs1)C1CCCCC1
> 2 h

Data credit: ChEMBL document CHEMBL4304749
